property: melting point

Answered cases to consult:
{"columns": ["smiles-entry", "assay-result"],
 "data": [
  ["O=C(NCc1ccc(Cl)cc1)c1cnc2c(F)cc(/C=C\\CO)cc2c1O", "234 to 235 °C"],
  ["O=C(Nc1ccc(F)cc1)[C@H]1CCCN(C(=O)c2ccc(F)cc2)C1", "163 to 164 °C"],
  ["CCOC(=O)c1ncn2c1CNC(=O)c1cc(OC)ccc1-2", "240 °C"],
  ["Oc1ccc(-c2ccc(O)c(Br)c2)cc1Br", "118 to 121 °C"]
]}

## Task I have this molecule here, `Cc1ccc(CCOc2ccnc3c(OCCc4ccc(C)cc4)cccc23)cc1` , and I need its recorded melting point.
## Result 142 to 143 °C

---

We begin with a simple list: items and their reported melting point.

Answered cases to consult:
{"columns": ["molecule", "assay-result"],
 "data": [
  ["CCCCCC(CC(=O)Nc1cc(C(N)=O)ccc1C(C)(C)C)c1cc(OC)c(OC)cc1OC (stereo unspecified)", "166 to 167 °C"],
  ["Cc1c(-c2ccccc2)nn(C(C)(C)C(=O)N(C)C)c1C", "115 to 117 °C"],
  ["N#Cc1cc(C(=O)NNC(=O)c2occc2-c2cccs2)ccc1O", "258 to 259 °C"],
  ["CCCCc1ccc(-c2coc(C(=O)O)cc2=O)cc1", "193 to 195 °C"],
  ["Cc1cccc(C(=O)Cc2ccnc(-c3ccc(OCC(N)=O)cc3)c2)n1", "144 to 146 °C"],
  ["CC1CCC(C)C1C(=O)O (stereo unspecified)", "45 °C"]
]}

## Task I have this molecule here, `O=C(Nc1ccc(Oc2ccnc(NC3CC3)n2)c2ccccc12)c1cc(F)cc(N2CCOCC2)c1` , and I need its recorded melting point.
## Result 118 to 120 °C

## Task I have this molecule here, COc1cccc(C2(CC(=O)O)CCCC2C(=O)O)c1 (stereo unspecified) , and I need its recorded melting point.
## Result 175 to 180 °C

---

We begin with a simple list: items and their reported melting point.

Answered cases to consult:
{"columns": ["molecule", "melting point"],
 "data": [
  ["O=C(N[C@@H](CS(=O)(=O)c1ccc(Oc2ccccc2)cc1)C(=O)NO)OCc1ccccc1", "195 to 202 °C"],
  ["CC(=O)NC1CCN(Cc2cnc3cc(NC(=O)c4ccc(-c5ccc(F)cc5)cc4)ccc3c2)C1 (stereo not given)", "250 to 253 °C"],
  ["Cc1nn(C2=NNN(S)C2N)c2c1CCCC2 (stereo not given)", "201 to 202 °C"],
  ["CC1(C)OC[C@H](COc2ccc(C(=O)c3ccc([N+](=O)[O-])cc3)cc2)O1", "92 to 93 °C"],
  ["O=C(OCC(Cl)(Cl)Cl)N1C2CCC1CC(Sc1ccc(Cl)cc1)C2 (stereo not given)", "70 to 71.5 °C"],
  ["OCc1c[nH]c(-c2ccc(OCc3ccccc3)cc2)n1", "183 to 185 °C"],
  ["O=CNc1ccc2c(c1)C(=O)CCC2", "137 to 138 °C"],
  ["CCOc1ccc(-n2c(N)cc(=O)nc2SC)cc1", "177 to 181 °C"]
]}

## Task I have this molecule here, `CN(CCCCOc1ccc(C=C2SC(=O)NC2=O)cc1)c1nc2ccccc2o1` , and I need its recorded melting point.
## Result 168 °C

## Task I have this molecule here, `COC(=O)c1cc2nc(-c3ccccc3)nn2cc1F` , and I need its recorded melting point.
## Result 162 to 168 °C

Just for reference, a melting point compilation (Tetko et al.; mined from patent text by program, amines drawn as free bases though some values may be those of a salt) is where these values come from.
